Tested on: OCI-AML-3 leukemia cells
Assay: Inhibitory activity against tumor cells, CellTiter-Glo: OCI-AML-3
Format: cell-based
Conditions: Homo sapiens, 120 h, OCI-AML-3, 5 days treatment
ENDPOINT_LABEL: IC50
Dear colleague, please send the value followed by its unit.

Input: Provide one value: measured IC50 of C[C@@H]1Cc2cnc(NCc3ccn(C)n3)nc2CN1C(=O)N[C@H](CN(C)C)c1ccccc1
Output: 33.2 nM

Input: Write down IC50 measured for item [2H]C([2H])([2H])N(C[C@@H](NC(=O)N1Cc2nc(NCc3ccn(C)n3)ncc2C[C@H]1C)c1ccccc1)C([2H])([2H])[2H]
Output: 47.1 nM

Input: Fill in IC50 for record C[C@H](Nc1ncc2c(n1)CN(C(=O)N[C@H](CN(C)C)c1ccccc1)[C@H](C)C2)c1ccccn1
Output: 33.4 nM

Reference source: patent US20260176266A1
